# assay.protocol: self-splicing fitness, log relative to wild type (ln ratio); higher = more splicing; Tetrahymena group I intron in knt gene, E. coli kanamycin selection, DiMSum; sequences stand for … in CUCUCU…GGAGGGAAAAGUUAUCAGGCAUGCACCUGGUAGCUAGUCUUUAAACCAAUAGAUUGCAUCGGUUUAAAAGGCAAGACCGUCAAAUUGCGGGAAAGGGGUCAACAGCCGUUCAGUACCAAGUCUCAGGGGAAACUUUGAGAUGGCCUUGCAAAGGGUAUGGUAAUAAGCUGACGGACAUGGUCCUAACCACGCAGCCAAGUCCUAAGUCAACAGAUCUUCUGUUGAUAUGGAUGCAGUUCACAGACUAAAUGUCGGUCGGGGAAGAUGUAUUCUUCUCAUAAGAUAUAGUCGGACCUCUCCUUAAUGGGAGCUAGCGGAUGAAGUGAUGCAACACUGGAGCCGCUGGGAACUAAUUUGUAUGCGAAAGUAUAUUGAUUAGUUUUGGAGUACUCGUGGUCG;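 further: selection with 25 µg/mL kanamycin versus none on LB agar overnight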
# test.context: 30 °C
Listing of recorded self-splicing fitness (ln) by entry.
Give the figure by itself; no unit, no explanation.

Would you please look over these solved cases?
| biopolymer.sequence | self-splicing fitness (ln) |
| --- | --- |
| UCGCAGCAAUAUUACGUCUU | -1 |
| AUUGAGCAAUAUUACGGUUA | -3.06 |
| CGAUAGCAAUAUUACGCCCU | -0.983 |
| AGGCAGCAAUAUUACGGAGU | -3.02 |

(Q) What value of self-splicing fitness (ln) has been reported for the following sequence? `CAACAGCAAUAUUACGGUCU`
(A) -3.01

---

# assay.protocol: self-splicing fitness, log relative to wild type (ln ratio); higher = more splicing; Tetrahymena group I intron in knt gene, E. coli kanamycin selection, DiMSum; sequences stand for … in CUCUCU…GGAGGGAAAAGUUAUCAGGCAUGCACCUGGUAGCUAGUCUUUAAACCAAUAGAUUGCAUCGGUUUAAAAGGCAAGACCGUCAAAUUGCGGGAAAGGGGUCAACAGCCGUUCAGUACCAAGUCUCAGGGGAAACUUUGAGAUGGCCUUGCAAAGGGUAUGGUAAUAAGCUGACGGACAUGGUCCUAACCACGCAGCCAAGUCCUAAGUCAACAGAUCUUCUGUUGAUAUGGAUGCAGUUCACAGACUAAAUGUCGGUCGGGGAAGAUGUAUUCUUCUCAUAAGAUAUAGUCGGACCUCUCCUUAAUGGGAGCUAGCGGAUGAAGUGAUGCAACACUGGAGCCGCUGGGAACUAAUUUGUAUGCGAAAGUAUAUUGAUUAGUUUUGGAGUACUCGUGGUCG
# test.context: 30 °C
experimental.endpoint: self-splicing fitness (ln)
Give the figure by itself; no unit, no explanation.

| biopolymer.sequence | experimental.endpoint | experimental.value |
| --- | --- | --- |
| GGUAAGCAAUAUUACGCAUG | self-splicing fitness (ln) | -2.62 |
| CUUUAGCAAUAUUACGGAAU | self-splicing fitness (ln) | -1.75 |
| UACUAGCAAUAUUACGAAUU | self-splicing fitness (ln) | -4.02 |

(Q) What value of self-splicing fitness (ln) has been reported for the following sequence? `CCUGAGCAAUAUUACGAGAA`
(A) -3.46

(Q) What value of self-splicing fitness (ln) has been reported for the following sequence? `UCGCAGCAAUAUUACGAGUG`
(A) -1.48

(Q) What value of self-splicing fitness (ln) has been reported for the following sequence? `CGACAGCAAUAUUACGCGCU`
(A) -3.43

(Q) What value of self-splicing fitness (ln) has been reported for the following sequence? `CGAAAGCAAUAUUACGGCCA`
(A) -1.29

(Q) What value of self-splicing fitness (ln) has been reported for the following sequence? `CAGUAGCAAUAUUACGCACU`
(A) -2.19

(Q) What value of self-splicing fitness (ln) has been reported for the following sequence? `CACGAGCAAUAUUACGUUUU`
(A) -3.49

(Q) What value of self-splicing fitness (ln) has been reported for the following sequence? `CGUUAGCAAUAUUACGUCAG`
(A) -0.851

(Q) What value of self-splicing fitness (ln) has been reported for the following sequence? `UACAAGCAAUAUUACGAGAG`
(A) -3.24

(Q) What value of self-splicing fitness (ln) has been reported for the following sequence? `AGCCAGCAAUAUUACGGCUC`
(A) -2.52

(Q) What value of self-splicing fitness (ln) has been reported for the following sequence? `CAUUAGCAAUAUUACGGUGU`
(A) -3.92

(Q) What value of self-splicing fitness (ln) has been reported for the following sequence? `CAUUAGCAAUAUUACGUCGC`
(A) -2.38

(Q) What value of self-splicing fitness (ln) has been reported for the following sequence? `UGGCAGCAAUAUUACGCUAU`
(A) -3.89

(Q) What value of self-splicing fitness (ln) has been reported for the following sequence? `ACUGAGCAAUAUUACGUCGA`
(A) -3.59

(Q) What value of self-splicing fitness (ln) has been reported for the following sequence? `AACUAGCAAUAUUACGUUUG`
(A) -3.27

(Q) What value of self-splicing fitness (ln) has been reported for the following sequence? `GCCAAGCAAUAUUACGAAGU`
(A) -1.12

(Q) What value of self-splicing fitness (ln) has been reported for the following sequence? `GACAAGCAAUAUUACGGUUU`
(A) -1.79

(Q) What value of self-splicing fitness (ln) has been reported for the following sequence? `GCCGAGCAAUAUUACGAUGG`
(A) -2.48

(Q) What value of self-splicing fitness (ln) has been reported for the following sequence? `UCACAGCAAUAUUACGGUAG`
(A) -1.18

(Q) What value of self-splicing fitness (ln) has been reported for the following sequence? `ACACAGCAAUAUUACGAGCC`
(A) -1.97

(Q) What value of self-splicing fitness (ln) has been reported for the following sequence? `CUUGAGCAAUAUUACGGAAU`
(A) -2.85
